Let's look at some binders and their measured MFI.
tgt: T1, cynomolgus BLyS (full length, arginine to histidine at position 132) on CHO-K1 cells (cynomolgus, UniProt Q9Y275 1-285 (human entry))
T1 construct: also called cyno BLyS; CHO-K1 cynoBLyS
T1 chain: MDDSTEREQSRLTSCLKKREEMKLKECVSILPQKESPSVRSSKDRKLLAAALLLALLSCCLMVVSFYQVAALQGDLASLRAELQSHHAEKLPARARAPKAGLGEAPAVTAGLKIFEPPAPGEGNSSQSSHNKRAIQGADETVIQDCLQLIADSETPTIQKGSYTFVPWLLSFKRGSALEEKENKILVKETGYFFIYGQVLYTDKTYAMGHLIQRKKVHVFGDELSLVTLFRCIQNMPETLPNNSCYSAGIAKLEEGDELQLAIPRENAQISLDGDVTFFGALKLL
assay_overview: flow cytometry, CHO-K1 cynoBLyS cells, antibody 2.67 nM

binder: 8E7D9C7F5 (antibody, V domains shown, Mouse hybridoma monoclonal antibody purified on Protein G) VH: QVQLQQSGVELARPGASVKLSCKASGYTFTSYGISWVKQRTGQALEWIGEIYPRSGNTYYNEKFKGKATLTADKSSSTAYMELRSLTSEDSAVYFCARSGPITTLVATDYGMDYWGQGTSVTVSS VL: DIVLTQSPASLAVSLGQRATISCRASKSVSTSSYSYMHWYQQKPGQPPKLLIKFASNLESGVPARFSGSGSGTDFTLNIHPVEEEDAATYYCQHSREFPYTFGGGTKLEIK
MFI: 1130 MFI

binder: 97E7B3F2 (antibody, V domains shown, Mouse hybridoma monoclonal antibody purified on Protein G) VH: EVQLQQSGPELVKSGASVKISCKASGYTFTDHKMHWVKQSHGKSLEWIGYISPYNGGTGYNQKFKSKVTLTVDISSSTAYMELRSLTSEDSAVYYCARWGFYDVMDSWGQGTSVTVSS VL: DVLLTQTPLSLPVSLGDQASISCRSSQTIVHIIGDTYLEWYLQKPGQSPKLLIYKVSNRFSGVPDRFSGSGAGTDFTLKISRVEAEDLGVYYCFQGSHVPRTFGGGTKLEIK
MFI: 705 MFI

binder: 89A2G5E7 (antibody, V domains shown, Mouse hybridoma monoclonal antibody purified on Protein G) VH: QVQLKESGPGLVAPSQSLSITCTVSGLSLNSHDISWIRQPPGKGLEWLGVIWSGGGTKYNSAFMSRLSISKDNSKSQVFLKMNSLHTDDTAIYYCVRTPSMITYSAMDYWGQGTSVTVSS VL: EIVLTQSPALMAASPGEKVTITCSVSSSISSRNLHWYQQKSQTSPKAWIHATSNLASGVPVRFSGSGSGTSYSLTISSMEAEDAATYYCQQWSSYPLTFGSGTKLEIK
MFI: 726 MFI

binder: 35E6F7C3 (antibody, V domains shown, Mouse hybridoma monoclonal antibody purified on Protein G) VH: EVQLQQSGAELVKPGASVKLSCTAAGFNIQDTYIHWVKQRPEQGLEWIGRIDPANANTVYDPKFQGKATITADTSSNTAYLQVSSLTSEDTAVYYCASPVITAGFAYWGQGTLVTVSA VL: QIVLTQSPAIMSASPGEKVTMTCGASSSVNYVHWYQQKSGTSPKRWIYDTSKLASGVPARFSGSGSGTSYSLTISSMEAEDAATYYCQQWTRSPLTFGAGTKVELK
MFI: 953 MFI

binder: 2-1G11 (antibody, V domains shown, From a human naive scFv phage library; also called human BLyS antibody 2-1G11) VH: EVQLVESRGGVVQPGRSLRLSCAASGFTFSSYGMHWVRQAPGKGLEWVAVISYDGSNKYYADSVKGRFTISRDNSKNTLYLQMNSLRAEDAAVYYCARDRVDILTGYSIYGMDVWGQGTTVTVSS VL: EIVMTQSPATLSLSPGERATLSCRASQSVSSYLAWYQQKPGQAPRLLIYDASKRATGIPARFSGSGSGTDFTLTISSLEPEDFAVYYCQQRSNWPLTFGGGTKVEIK
MFI: 1480 MFI

binder: 78C11D2D12 (antibody, V domains shown, Mouse hybridoma monoclonal antibody purified on Protein G) VH: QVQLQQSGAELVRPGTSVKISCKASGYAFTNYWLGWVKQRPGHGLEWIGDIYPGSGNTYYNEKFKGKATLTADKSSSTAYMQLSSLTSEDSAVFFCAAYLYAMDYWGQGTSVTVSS VL: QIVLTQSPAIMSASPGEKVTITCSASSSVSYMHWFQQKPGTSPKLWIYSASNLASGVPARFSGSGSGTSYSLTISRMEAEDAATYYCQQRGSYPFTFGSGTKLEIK
MFI: 594 MFI

binder: 20D1B6E9E5 (antibody, V domains shown, Mouse hybridoma monoclonal antibody purified on Protein G) VH: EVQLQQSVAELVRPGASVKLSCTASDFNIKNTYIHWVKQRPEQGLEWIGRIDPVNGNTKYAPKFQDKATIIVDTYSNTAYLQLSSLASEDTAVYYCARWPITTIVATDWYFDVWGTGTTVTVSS VL: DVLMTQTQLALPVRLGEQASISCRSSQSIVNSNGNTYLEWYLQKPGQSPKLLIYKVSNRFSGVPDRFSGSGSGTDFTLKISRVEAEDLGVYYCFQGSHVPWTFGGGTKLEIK
MFI: 933 MFI
